- Tested on: 885724-159-R-J1-PDC complex spheroid viability
- assay: Anticancer human tumor 885724-159-R-J1-PDC patient-derived pancreatic adenocarcinoma cell line growth inhibition [GQUAD]
- experimental.context: curve of first compound; second compound 1 µM
List of IC50 values.

compound: COc1cc(C2c3cc4c(cc3C(OC3OC5COC(C)OC5C(O)C3O)C3COC(=O)C23)OCO4)cc(OC)c1O (stereo not given) + Cc1[nH]c2ccc(F)cc2c1-c1nc2c3cccnc3c3ncccc3c2[nH]1
assayed.system: 885724-159-R-J1-PDC complex spheroid viability
cmp: >
IC50 (µM): 10

compound: CC1COCCN1c1cc(-c2ccnn2C)c2ccnc(-c3ccn[nH]3)c2n1 (stereo not given) + Cc1cnc(CNC(=O)c2c(=O)c3ccc(N4CCCN(C)CC4)nc3n3c2sc2ccccc23)cn1
assayed.system: 885724-159-R-J1-PDC complex spheroid viability
cmp: =
IC50 (µM): 1.59

compound: CCCS(=O)(=O)Nc1ccc(F)c(C(=O)c2c[nH]c3ncc(-c4ccc(Cl)cc4)cc23)c1F + Cc1[nH]c2ccc(F)cc2c1-c1nc2c3cccnc3c3ncccc3c2[nH]1
assayed.system: 885724-159-R-J1-PDC complex spheroid viability
cmp: =
IC50 (µM): 7.43

compound: CCc1c2c(nc3ccc(O)cc13)-c1cc3c(c(=O)n1C2)COC(=O)[C@]3(O)CC + Cc1cnc(CNC(=O)c2c(=O)c3ccc(N4CCCN(C)CC4)nc3n3c2sc2ccccc23)cn1
assayed.system: 885724-159-R-J1-PDC complex spheroid viability
cmp: =
IC50 (µM): 0.057

compound: CC(C)n1c(=O)n(C)c2cnc3cc(F)c(-c4ccc(OCCCN5CCCCC5)nc4)cc3c21 + Cc1[nH]c2ccc(F)cc2c1-c1nc2c3cccnc3c3ncccc3c2[nH]1
assayed.system: 885724-159-R-J1-PDC complex spheroid viability
cmp: >
IC50 (µM): 10

---

- Tested on: 885724-159-R-J1-PDC complex spheroid viability
- assay: Anticancer human tumor 885724-159-R-J1-PDC cell line growth inhibition [GQUAD];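 note: spheroids exposed to agents for seven days before readout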;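 for viability, T/C: percent of vehicle control viability where 100% = DMSO wells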
- experimental.context: second compound 0.316 µM; first compound 0.000999 µM; stronger effect = lower value
Decide using viability, T/C alone. Strictly below 90%: 1 (yes). Equal to or above 90%: 0 (no).

molecule: CCc1c2c(nc3ccc(O)cc13)-c1cc3c(c(=O)n1C2)COC(=O)[C@]3(O)CC + Cc1[nH]c2ccc(F)cc2c1-c1nc2c3cccnc3c3ncccc3c2[nH]1
assayed.system: 885724-159-R-J1-PDC complex spheroid viability
label: 1 (yes)
//
molecule: Cn1ncnc1[C@H]1c2n[nH]c(=O)c3cc(F)cc(c23)N[C@@H]1c1ccc(F)cc1 + Cc1[nH]c2ccc(F)cc2c1-c1nc2c3cccnc3c3ncccc3c2[nH]1
assayed.system: 885724-159-R-J1-PDC complex spheroid viability
label: 1 (yes)
//
molecule: CC[C@@]1(O)C(=O)OCc2c1cc1n(c2=O)Cc2cc3c(CN(C)C)c(O)ccc3nc2-1 + CN(C)c1ccc(Nc2c3ccc(NC(=O)CCN4CCCC4)cc3nc3cc(NC(=O)CCN4CCCC4)ccc23)cc1
assayed.system: 885724-159-R-J1-PDC complex spheroid viability
label: 1 (yes)
//
molecule: Cn1ncnc1[C@H]1c2n[nH]c(=O)c3cc(F)cc(c23)N[C@@H]1c1ccc(F)cc1 + CN(C)c1ccc(Nc2c3ccc(NC(=O)CCN4CCCC4)cc3nc3cc(NC(=O)CCN4CCCC4)ccc23)cc1
assayed.system: 885724-159-R-J1-PDC complex spheroid viability
label: 0 (no)
//
molecule: CCc1c2c(nc3ccc(O)cc13)-c1cc3c(c(=O)n1C2)COC(=O)[C@]3(O)CC + CN(C)c1ccc(Nc2c3ccc(NC(=O)CCN4CCCC4)cc3nc3cc(NC(=O)CCN4CCCC4)ccc23)cc1
assayed.system: 885724-159-R-J1-PDC complex spheroid viability
label: 1 (yes)
//
molecule: CCc1c2c(nc3ccc(O)cc13)-c1cc3c(c(=O)n1C2)COC(=O)[C@]3(O)CC + Cc1cnc(CNC(=O)c2c(=O)c3ccc(N4CCCN(C)CC4)nc3n3c2sc2ccccc23)cn1
assayed.system: 885724-159-R-J1-PDC complex spheroid viability
label: 0 (no)
//
molecule: Cc1[nH]c2ccccc2c1CCNCc1ccc(/C=C/C(=O)NO)cc1 + CN(C)c1ccc(Nc2c3ccc(NC(=O)CCN4CCCC4)cc3nc3cc(NC(=O)CCN4CCCC4)ccc23)cc1
assayed.system: 885724-159-R-J1-PDC complex spheroid viability
label: 1 (yes)
//
molecule: Cc1[nH]c2ccccc2c1CCNCc1ccc(/C=C/C(=O)NO)cc1 + Cc1cnc(CNC(=O)c2c(=O)c3ccc(N4CCCN(C)CC4)nc3n3c2sc2ccccc23)cn1
assayed.system: 885724-159-R-J1-PDC complex spheroid viability
label: 0 (no)
//
molecule: CC[C@@]1(O)C(=O)OCc2c1cc1n(c2=O)Cc2cc3c(CN(C)C)c(O)ccc3nc2-1 + Cc1[nH]c2ccc(F)cc2c1-c1nc2c3cccnc3c3ncccc3c2[nH]1
assayed.system: 885724-159-R-J1-PDC complex spheroid viability
label: 1 (yes)
//
molecule: Cc1[nH]c2ccccc2c1CCNCc1ccc(/C=C/C(=O)NO)cc1 + Cc1[nH]c2ccc(F)cc2c1-c1nc2c3cccnc3c3ncccc3c2[nH]1
assayed.system: 885724-159-R-J1-PDC complex spheroid viability
label: 0 (no)
//
molecule: CC[C@@]1(O)C(=O)OCc2c1cc1n(c2=O)Cc2cc3c(CN(C)C)c(O)ccc3nc2-1 + Cc1cnc(CNC(=O)c2c(=O)c3ccc(N4CCCN(C)CC4)nc3n3c2sc2ccccc23)cn1
assayed.system: 885724-159-R-J1-PDC complex spheroid viability
label: 0 (no)

---

- Test system: 885724-159-R-J1-PDC complex spheroid viability
- assay: Anticancer human tumor 885724-159-R-J1-PDC cell line growth inhibition [GQUAD];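 note: spheroids exposed to agents for seven days before readout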;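 for viability, T/C: percent of vehicle control viability where 100% = DMSO wells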
- experimental.context: second compound 0.316 µM; first compound 10 µM; stronger effect = lower value

compound: CC(=O)O[C@H]1C(=O)[C@@]2(C)[C@H]([C@H](OC(=O)c3ccccc3)[C@]3(O)C[C@H](OC(=O)[C@H](O)[C@@H](NC(=O)c4ccccc4)c4ccccc4)C(C)=C1C3(C)C)[C@]1(OC(C)=O)CO[C@@H]1C[C@@H]2O + Cc1cnc(CNC(=O)c2c(=O)c3ccc(N4CCCN(C)CC4)nc3n3c2sc2ccccc23)cn1
viability, T/C: 105%
//
compound: O=c1[nH]cc(F)c(=O)[nH]1 + CN(C)c1ccc(Nc2c3ccc(NC(=O)CCN4CCCC4)cc3nc3cc(NC(=O)CCN4CCCC4)ccc23)cc1
viability, T/C: 78.5%
//
compound: CC1COCCN1c1cc(C2(O)CC3CCC(C2)O3)c2cnn(-c3ccn[nH]3)c2n1 (centres undefined) + Cc1[nH]c2ccc(F)cc2c1-c1nc2c3cccnc3c3ncccc3c2[nH]1
viability, T/C: 35.5%
//
compound: COc1ncnc(C2CC2)c1-c1ncc2cnn(Cc3ccc(-c4nc(C(F)(F)F)cn4C(C)C)cc3)c2n1 + Cc1[nH]c2ccc(F)cc2c1-c1nc2c3cccnc3c3ncccc3c2[nH]1
viability, T/C: 82.3%
//
compound: COc1cc(C2c3cc4c(cc3C(OC3OC5COC(C)OC5C(O)C3O)C3COC(=O)C23)OCO4)cc(OC)c1O (centres undefined) + CN(C)c1ccc(Nc2c3ccc(NC(=O)CCN4CCCC4)cc3nc3cc(NC(=O)CCN4CCCC4)ccc23)cc1
viability, T/C: 64.2%
//
compound: C#Cc1c(F)ccc2cc(O)cc(-c3ncc4c(N5CC6CCC(C5)N6)nc(OCC56CCCN5CC(F)C6)nc4c3F)c12 (centres undefined) + Cc1cnc(CNC(=O)c2c(=O)c3ccc(N4CCCN(C)CC4)nc3n3c2sc2ccccc23)cn1
viability, T/C: 35%
//
compound: COc1ncnc(C2CC2)c1-c1ncc2cnn(Cc3ccc(-c4nc(C(F)(F)F)cn4C(C)C)cc3)c2n1 + Cc1cnc(CNC(=O)c2c(=O)c3ccc(N4CCCN(C)CC4)nc3n3c2sc2ccccc23)cn1
viability, T/C: 106%
//
compound: C=CCn1c(=O)c2cnc(Nc3ccc(N4CCN(C)CC4)cc3)nc2n1-c1cccc(C(C)(C)O)n1 + CN(C)c1ccc(Nc2c3ccc(NC(=O)CCN4CCCC4)cc3nc3cc(NC(=O)CCN4CCCC4)ccc23)cc1
viability, T/C: 52.3%
//
compound: O=C(c1cc(Cc2n[nH]c(=O)c3ccccc23)ccc1F)N1CCN(C(=O)C2CC2)CC1 + Cc1cnc(CNC(=O)c2c(=O)c3ccc(N4CCCN(C)CC4)nc3n3c2sc2ccccc23)cn1
viability, T/C: 77%
//
compound: O=c1[nH]cc(F)c(=O)[nH]1 + Cc1cnc(CNC(=O)c2c(=O)c3ccc(N4CCCN(C)CC4)nc3n3c2sc2ccccc23)cn1
viability, T/C: 97.1%
//
compound: C#Cc1c(F)ccc2cc(O)cc(-c3ncc4c(N5CC6CCC(C5)N6)nc(OCC56CCCN5CC(F)C6)nc4c3F)c12 (centres undefined) + Cc1[nH]c2ccc(F)cc2c1-c1nc2c3cccnc3c3ncccc3c2[nH]1
viability, T/C: 28%
//
compound: O=C(c1cc(Cc2n[nH]c(=O)c3ccccc23)ccc1F)N1CCN(C(=O)C2CC2)CC1 + Cc1[nH]c2ccc(F)cc2c1-c1nc2c3cccnc3c3ncccc3c2[nH]1
viability, T/C: 72.9%
//
compound: CC(C)(O)C1CCC(Nc2ccc3ncc(-c4cccc(C(F)(F)F)c4)n3n2)CC1 (centres undefined) + Cc1[nH]c2ccc(F)cc2c1-c1nc2c3cccnc3c3ncccc3c2[nH]1
viability, T/C: 38.3%
//
compound: COc1cccc2c1C(=O)c1c(O)c3c(c(O)c1C2=O)CC(O)(C(=O)CO)CC3OC1CC(N)C(O)C(C)O1 (centres undefined) + CN(C)c1ccc(Nc2c3ccc(NC(=O)CCN4CCCC4)cc3nc3cc(NC(=O)CCN4CCCC4)ccc23)cc1
viability, T/C: 1.92%
//
compound: CC1COCCN1c1cc(C2(O)CC3CCC(C2)O3)c2cnn(-c3ccn[nH]3)c2n1 (centres undefined) + Cc1cnc(CNC(=O)c2c(=O)c3ccc(N4CCCN(C)CC4)nc3n3c2sc2ccccc23)cn1
viability, T/C: 22.4%
//
compound: C=CC(=O)N1CCN(c2nc(=O)n(-c3c(C)ccnc3C(C)C)c3nc(-c4c(O)cccc4F)c(F)cc23)C(C)C1 (centres undefined) + CN(C)c1ccc(Nc2c3ccc(NC(=O)CCN4CCCC4)cc3nc3cc(NC(=O)CCN4CCCC4)ccc23)cc1
viability, T/C: 89.2%
//
compound: CC(=O)O[C@H]1C(=O)[C@@]2(C)[C@H]([C@H](OC(=O)c3ccccc3)[C@]3(O)C[C@H](OC(=O)[C@H](O)[C@@H](NC(=O)c4ccccc4)c4ccccc4)C(C)=C1C3(C)C)[C@]1(OC(C)=O)CO[C@@H]1C[C@@H]2O + CN(C)c1ccc(Nc2c3ccc(NC(=O)CCN4CCCC4)cc3nc3cc(NC(=O)CCN4CCCC4)ccc23)cc1
viability, T/C: 81.1%
//
compound: CC1COCCN1c1cc(C2(S(C)(=N)=O)CC2)nc(-c2ccnc3[nH]ccc23)n1 (centres undefined) + CN(C)c1ccc(Nc2c3ccc(NC(=O)CCN4CCCC4)cc3nc3cc(NC(=O)CCN4CCCC4)ccc23)cc1
viability, T/C: 63.9%
//
compound: COc1cccc2c1C(=O)c1c(O)c3c(c(O)c1C2=O)CC(O)(C(=O)CO)CC3OC1CC(N)C(O)C(C)O1 (centres undefined) + Cc1[nH]c2ccc(F)cc2c1-c1nc2c3cccnc3c3ncccc3c2[nH]1
viability, T/C: 2.12%
